The values you see were collected from ChEMBL document CHEMBL5149974.

tested on: Plasmodium falciparum; test: Antiplasmodial activity against Plasmodium falciparum; assay type: functional, organism-based
pIC50: −log10 of the molar value.

{"Compound": "CCC/C=C\\CCC[C@@H]1C2N=C(N)N[C@H]3CC[C@@H](C[C@H]1CCC)C23 (stereo partly specified)", "Experimental target": "Plasmodium falciparum", "pIC50": 5.08}

====

assay: Inhibition of Mycobacterium smegmatis biofilm fromation incubated for 48 hrs by crystal violet staining based analysis; type: functional, Mycolicibacterium smegmatis
Catalogue of IC50 values

{"Smiles repr": "CCCCCCc1ccc(-c2nc(N)[nH]c2C(F)(F)F)cc1", "IC50": "< 10 µM"}
{"Smiles repr": "CCCCCOc1ccc(-c2nc(N)[nH]c2C(F)(F)F)cc1", "IC50": "< 10 µM"}
